Test: Single ascending-dose (SAD) study, plasma pharmacokinetics
Format: in vivo, human
Details: both sexes, human, plasma, oral; SAD single dose 40 mg, N = 8, mean (SD); read-out: MRT
Measured attribute: MRT (h)
Quick note: give the figure in h, leave out the unit.

Ask | Report MRT for Cc1nc(-c2cnc(N3CCN(CCCc4c[nH]c5ccc(C#N)cc45)CC3)nc2)sc1C(N)=O [HEC113995PA·H2O] please.
Reply | 38.1

* * *

Test: Single ascending-dose (SAD) study, plasma pharmacokinetics
Format: in vivo, human
Conditions: both sexes, human, plasma, oral; SAD single dose 20 mg, N = 8, mean (SD)
Measured attribute: k el
Number first, unit second.

Ask | Requested read-out: k el. Entry: Cc1nc(-c2cnc(N3CCN(CCCc4c[nH]c5ccc(C#N)cc45)CC3)nc2)sc1C(N)=O [HEC113995PA·H2O]
Reply | 5.19e-06 s⁻¹

* * *

Assay: Food effect study, plasma pharmacokinetics
Type: in vivo, human
Details: both sexes, human, plasma, po, 20 mg, single oral 20 mg, fed with standard meal, N = 18, mean (SD)
Measured attribute: MRT (h)
Response body: numeric value in h, unit text excluded.

Ask | I have this molecule here, Cc1nc(-c2cnc(N3CCN(CCCc4c[nH]c5ccc(C#N)cc45)CC3)nc2)sc1C(N)=O [HEC113995PA·H2O] , and I need its recorded MRT.
Reply | 35.4

* * *

Assay: Single ascending-dose (SAD) study, plasma pharmacokinetics
Format: in vivo, human
Details: both sexes, human, oral; SAD single dose 60 mg, N = 8, plasma, mean (SD); read-out: Cmax
Measured attribute: Cmax (ng/mL)
Could you give me the number in ng/mL? Just the number is fine.

Ask | Value lookup for Cmax; key = Cc1nc(-c2cnc(N3CCN(CCCc4c[nH]c5ccc(C#N)cc45)CC3)nc2)sc1C(N)=O [HEC113995PA·H2O]
Reply | 149

* * *

Test: Multiple ascending-dose (MAD) study, plasma pharmacokinetics
Type: in vivo, human
Conditions: both sexes, human, plasma, oral; MAD 20 mg (N = 9), D10, QD after standard meal, mean (SD)
Measured attribute: half-life
Remember to quote the unit after the number.

Ask | Endpoint output: half-life of Cc1nc(-c2cnc(N3CCN(CCCc4c[nH]c5ccc(C#N)cc45)CC3)nc2)sc1C(N)=O [HEC113995PA·H2O] . Value?
Reply | 38.6 h

* * *

Test: Single ascending-dose (SAD) study, plasma pharmacokinetics
Format: in vivo, human
Conditions: both sexes, human, plasma, oral; SAD single dose 2.5 mg, N = 6, median (min, max); read-out: Tmax
Measured attribute: Tmax (h)
// units = h; emit number, no label

Ask | Any idea what Tmax was measured for Cc1nc(-c2cnc(N3CCN(CCCc4c[nH]c5ccc(C#N)cc45)CC3)nc2)sc1C(N)=O [HEC113995PA·H2O] ?
Reply | 6

* * *

Assay: Multiple ascending-dose (MAD) study, plasma pharmacokinetics
Format: in vivo, human
Details: both sexes, human, plasma, oral, 40 mg, MAD 40 mg (N = 10), D1, after standard meal, mean (SD); read-out: Vz/F
Method: Three drug doses (10, 20 and 40 mg) were utilized. A total of 36 healthy subjects of both genders were assigned randomly to the three groups (n = 12), with10 subjects taking HEC113995PA·H2O tablets and 2 taking placebo. […] Safety and tolerability were evaluated on days 4, 8, 13 and 15. […] The concentration of HEC113995PA·H2O in human plasma samples (K2EDTA) was quantitatively analyzed using the LC-MS/MS method. […]
Measured attribute: Vd/F (L)
Give the quantity in L, number only.

Ask | Return reported Vd/F; argument: Cc1nc(-c2cnc(N3CCN(CCCc4c[nH]c5ccc(C#N)cc45)CC3)nc2)sc1C(N)=O [HEC113995PA·H2O]
Reply | 192
